Biological target: GalNAc-T2 (Homo sapiens)
Construct: made in house
Sequence (Q10471 75-571 limits assumed): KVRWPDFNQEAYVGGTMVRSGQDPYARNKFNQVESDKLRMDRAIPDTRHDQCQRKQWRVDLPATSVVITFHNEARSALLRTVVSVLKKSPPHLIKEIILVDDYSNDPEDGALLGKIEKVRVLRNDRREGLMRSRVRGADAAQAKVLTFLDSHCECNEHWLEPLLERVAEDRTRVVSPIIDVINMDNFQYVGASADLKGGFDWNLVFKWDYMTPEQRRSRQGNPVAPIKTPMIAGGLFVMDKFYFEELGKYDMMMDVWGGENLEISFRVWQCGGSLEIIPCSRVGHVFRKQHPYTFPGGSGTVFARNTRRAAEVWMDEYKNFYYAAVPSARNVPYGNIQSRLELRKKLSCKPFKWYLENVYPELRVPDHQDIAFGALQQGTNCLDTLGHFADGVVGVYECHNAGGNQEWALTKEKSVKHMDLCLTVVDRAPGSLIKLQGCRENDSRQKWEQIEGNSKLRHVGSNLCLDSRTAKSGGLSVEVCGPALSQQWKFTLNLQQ
Assay: SAXS with Ensemble Optimization Method: GalNAc-T2 conformations/oligomers with ligands; also: values in Å
Conditions: ligand molar ratio 1:10; GalNAc-T2 5 mg/ml; 25 mM TRIS pH 7.5, 10 mM MnCl2, 10 °C
Where a SMILES comes first, the peptide text is derived from it. The star is where a group is joined. αGalNAc = CC(=O)N[C@@H]1[C@@H](O)[C@@H](O)[C@@H](CO)O[C@@H]1*
Parameter Rg from p(r) (GNOM): see the listing below.
Give a bare numeral; the unit Å is implied.

Please review the following examples before continuing.
compound: O=c1ccn([C@@H]2O[C@H](COP(=O)(O)OP(=O)(O)O)[C@@H](O)[C@H]2O)c(=O)[nH]1 [UDP, uridine diphosphate, reference compound]
Rg from p(r) (GNOM), Å: 35.0
//
compound: CC(=O)NCC(=O)N[C@H](C(=O)N[C@H](C(=O)N1CCC[C@H]1C(=O)N[C@@H](CO)C(=O)N1CCC[C@H]1C(=O)N[C@H](C(=O)N1CCC[C@H]1C(=O)N[C@H](C(=O)N[C@H](C(=O)N[C@@H](CO)C(=O)N[C@H](C(=O)N[C@H](C(=O)N[C@@H](CO)C(=O)N[C@@H](C)C(N)=O)[C@@H](C)O[C@H]1O[C@H](CO)[C@H](O)[C@H](O)[C@H]1NC(C)=O)[C@@H](C)O)[C@@H](C)O)[C@@H](C)O)C(C)C)[C@@H](C)O)[C@@H](C)O [MUC5AC-13] (Ac-GTTPSPVPTTSTT(αGalNAc)SA-NH2; N-terminus assumed)
Rg from p(r) (GNOM), Å: 30.6

I'd like to know its Rg from p(r) (GNOM). The compound in question is CC(=O)N[C@H]1[C@@H](OP(=O)(O)OP(=O)(O)OC[C@H]2O[C@@H](n3ccc(=O)[nH]c3=O)[C@H](O)[C@@H]2O)O[C@H](CO)[C@H](O)[C@@H]1O [UDP-GalNAc, reference compound] 34.6

I'd like to know its Rg from p(r) (GNOM). The compound in question is CC(=O)NCC(=O)N[C@H](C(=O)N[C@H](C(=O)N1CCC[C@H]1C(=O)N[C@@H](CO)C(=O)N1CCC[C@H]1C(=O)N[C@H](C(=O)N1CCC[C@H]1C(=O)N[C@H](C(=O)N[C@H](C(=O)N[C@@H](CO)C(=O)N[C@H](C(=O)N[C@H](C(=O)N[C@@H](CO)C(=O)N[C@@H](C)C(N)=O)[C@@H](C)O)[C@@H](C)O)[C@@H](C)O)[C@@H](C)O)C(C)C)[C@@H](C)O)[C@@H](C)O [MUC5AC] (Ac-GTTPSPVPTTSTTSA-NH2; N-terminus assumed) 33.4

====

Parameter Rg (Guinier): see the listing below.
Target: GalNAc-T2 (Homo sapiens)
Construct: made in house
Assay: SAXS with Ensemble Optimization Method: GalNAc-T2 conformations/oligomers with ligands; also: values in Å
Conditions: ligand molar ratio GalNAc-T2:ligand 1:10; GalNAc-T2 5 mg/ml; 25 mM TRIS pH 7.5, 10 mM MnCl2, 10 °C
Where a SMILES comes first, the peptide text is derived from it. The star is where a group is joined. αGalNAc = CC(=O)N[C@@H]1[C@@H](O)[C@@H](O)[C@@H](CO)O[C@@H]1*
Give a bare numeral; the unit Å is implied.

Please review the following examples before continuing.
compound: CC(=O)NCC(=O)N[C@H](C(=O)N[C@H](C(=O)N1CCC[C@H]1C(=O)N[C@@H](CO)C(=O)N1CCC[C@H]1C(=O)N[C@H](C(=O)N1CCC[C@H]1C(=O)N[C@H](C(=O)N[C@H](C(=O)N[C@@H](CO)C(=O)N[C@H](C(=O)N[C@H](C(=O)N[C@@H](CO)C(=O)N[C@@H](C)C(N)=O)[C@@H](C)O[C@H]1O[C@H](CO)[C@H](O)[C@H](O)[C@H]1NC(C)=O)[C@@H](C)O)[C@@H](C)O)[C@@H](C)O)C(C)C)[C@@H](C)O)[C@@H](C)O [MUC5AC-13] (Ac-GTTPSPVPTTSTT(αGalNAc)SA-NH2; N-terminus assumed)
metric: Rg (Guinier)
unit.abbrev: Å
reading: 30.2

compound: CC(=O)N[C@H]1[C@@H](OP(=O)(O)OP(=O)(O)OC[C@H]2O[C@@H](n3ccc(=O)[nH]c3=O)[C@H](O)[C@@H]2O)O[C@H](CO)[C@H](O)[C@@H]1O [UDP-GalNAc, reference compound]
metric: Rg (Guinier)
unit.abbrev: Å
reading: 34.7

compound: CC(=O)NCC(=O)N[C@H](C(=O)N[C@H](C(=O)N1CCC[C@H]1C(=O)N[C@@H](CO)C(=O)N1CCC[C@H]1C(=O)N[C@H](C(=O)N1CCC[C@H]1C(=O)N[C@H](C(=O)N[C@H](C(=O)N[C@@H](CO)C(=O)N[C@H](C(=O)N[C@H](C(=O)N[C@@H](CO)C(=O)N[C@@H](C)C(N)=O)[C@@H](C)O)[C@@H](C)O)[C@@H](C)O)[C@@H](C)O)C(C)C)[C@@H](C)O)[C@@H](C)O [MUC5AC] (Ac-GTTPSPVPTTSTTSA-NH2; N-terminus assumed)
metric: Rg (Guinier)
unit.abbrev: Å
reading: 32.3

Next item in the queue.
I'd like to know its Rg (Guinier). The compound in question is O=c1ccn([C@@H]2O[C@H](COP(=O)(O)OP(=O)(O)O)[C@@H](O)[C@H]2O)c(=O)[nH]1 [UDP, uridine diphosphate, reference compound] 34.4
